system: BRCA2; experiment: 3' UTR reporter interaction score (median-centred robust z-score of log2 firefly/Renilla activity); higher = less repression of the 3' UTR reporter; details: HEK293T; 48 h
Output Criterion met for 3' UTR reporter interaction score not less than 0.07; output Criterion not met otherwise.

Below, 10 sequences whose answers are already recorded.
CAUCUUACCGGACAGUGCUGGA    Criterion met
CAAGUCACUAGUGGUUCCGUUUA    Criterion met
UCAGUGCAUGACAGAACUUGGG    Criterion not met
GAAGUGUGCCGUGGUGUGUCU    Criterion not met
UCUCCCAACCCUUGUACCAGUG    Criterion not met
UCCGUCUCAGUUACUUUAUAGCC    Criterion met
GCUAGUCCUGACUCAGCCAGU    Criterion not met
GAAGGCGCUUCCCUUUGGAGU    Criterion met
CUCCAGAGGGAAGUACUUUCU    Criterion not met
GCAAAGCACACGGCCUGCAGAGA    Criterion met

Is 3' UTR reporter interaction score for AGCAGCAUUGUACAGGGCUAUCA at or above 0.07?
Criterion met

Is 3' UTR reporter interaction score for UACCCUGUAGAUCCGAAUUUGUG at or above 0.07?
Criterion met

* * *

test system: MYB; test: 3' UTR reporter interaction score (median-centred robust z-score of log2 firefly/Renilla activity); higher = less repression of the 3' UTR reporter; conditions: HEK293T; 48 h
Output yes (1) for 3' UTR reporter interaction score not less than 0.1; output no (0) otherwise.

Is 3' UTR reporter interaction score for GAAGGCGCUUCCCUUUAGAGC at or above 0.1?
yes (1)

Is 3' UTR reporter interaction score for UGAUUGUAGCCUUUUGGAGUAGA at or above 0.1?
yes (1)

Is 3' UTR reporter interaction score for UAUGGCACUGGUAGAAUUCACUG at or above 0.1?
yes (1)

* * *

What 3' UTR reporter interaction score was measured for each of the following?
test system: MYB; experiment: 3' UTR reporter interaction score (median-centred robust z-score of log2 firefly/Renilla activity); higher = less repression of the 3' UTR reporter; settings: HEK293T; 48 h
One number for each entry.

Some solved entries appear below for comparison.
UGGCAGUGUCUUAGCUGGUUGUU    -2.9
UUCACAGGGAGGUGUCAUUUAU    -0.536
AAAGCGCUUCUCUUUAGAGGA    -0.0819

Each sequence below has a recorded value; state its 3' UTR reporter interaction score.
1. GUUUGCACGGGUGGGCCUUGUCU
2. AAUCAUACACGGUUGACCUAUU
3. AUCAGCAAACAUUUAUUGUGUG

-0.536
0.393
1.62

Each sequence below has a recorded value; state its 3' UTR reporter interaction score.
1. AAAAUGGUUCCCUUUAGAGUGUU
2. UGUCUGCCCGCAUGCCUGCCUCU

[-0.486, -1.11]

Each sequence below has a recorded value; state its 3' UTR reporter interaction score.
1. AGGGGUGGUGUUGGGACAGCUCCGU
2. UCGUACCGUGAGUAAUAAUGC
3. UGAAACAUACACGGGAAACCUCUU

[-0.179, -2.72, -0.521]

Each sequence below has a recorded value; state its 3' UTR reporter interaction score.
1. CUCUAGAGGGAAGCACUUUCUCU
2. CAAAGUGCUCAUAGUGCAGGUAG
3. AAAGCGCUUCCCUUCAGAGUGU
4. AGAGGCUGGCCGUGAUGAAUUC
5. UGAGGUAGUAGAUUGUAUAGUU
6. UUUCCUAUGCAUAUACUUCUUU
7. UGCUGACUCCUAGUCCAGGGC
8. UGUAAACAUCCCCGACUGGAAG

2.18
-1.73
0.692
0.549
0.461
0.476
0.123
0.447

* * *

tested on: ZEB2; assay: 3' UTR reporter interaction score (median-centred robust z-score of log2 firefly/Renilla activity); higher = less repression of the 3' UTR reporter; settings: HEK293T; 48 h
READOUT_LABEL: 3' UTR reporter interaction score
Give bare numbers.

Some solved entries appear below for comparison.
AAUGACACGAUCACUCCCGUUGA    0.878
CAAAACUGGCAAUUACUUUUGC    0.0176
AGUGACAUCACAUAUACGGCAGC    1.55

Continue with the sequence presented below.
Quick one: 3' UTR reporter interaction score of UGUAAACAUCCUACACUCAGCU ?
-1.14

* * *

What 3' UTR reporter interaction score was measured for each of the following?
test system: TP53; assay: 3' UTR reporter interaction score (median-centred robust z-score of log2 firefly/Renilla activity); higher = less repression of the 3' UTR reporter; conditions: HEK293T; 48 h

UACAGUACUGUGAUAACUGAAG    -0.59
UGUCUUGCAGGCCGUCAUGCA    -1.21
AGCUGGUGUUGUGAAUC    0.136
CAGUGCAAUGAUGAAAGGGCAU    -0.295
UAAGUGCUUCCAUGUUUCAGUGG    -0.245

Each sequence below has a recorded value; state its 3' UTR reporter interaction score.
1. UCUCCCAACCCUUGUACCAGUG
2. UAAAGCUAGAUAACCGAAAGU
3. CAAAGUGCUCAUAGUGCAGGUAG
4. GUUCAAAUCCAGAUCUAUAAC
5. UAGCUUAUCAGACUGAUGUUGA
6. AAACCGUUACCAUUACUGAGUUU
7. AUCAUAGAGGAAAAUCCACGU
8. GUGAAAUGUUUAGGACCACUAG

1. -0.706
2. 0.374
3. 0.0738
4. 0.149
5. -0.564
6. 0.812
7. 0.405
8. 0.19

Each sequence below has a recorded value; state its 3' UTR reporter interaction score.
1. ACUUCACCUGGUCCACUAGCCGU
2. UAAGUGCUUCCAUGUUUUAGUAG
3. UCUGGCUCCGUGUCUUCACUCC

[-0.237, 0.0485, 0.211]

Each sequence below has a recorded value; state its 3' UTR reporter interaction score.
1. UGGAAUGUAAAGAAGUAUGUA
2. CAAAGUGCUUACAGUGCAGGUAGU

-1.46
0.459

Each sequence below has a recorded value; state its 3' UTR reporter interaction score.
1. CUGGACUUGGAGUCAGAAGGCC
2. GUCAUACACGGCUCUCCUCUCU
3. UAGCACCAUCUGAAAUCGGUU
4. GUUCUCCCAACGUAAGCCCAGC
5. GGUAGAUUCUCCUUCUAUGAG

-0.688
-0.0395
-0.0665
0.732
-0.00155

* * *

tested on: MYCN; test: 3' UTR reporter interaction score (median-centred robust z-score of log2 firefly/Renilla activity); higher = less repression of the 3' UTR reporter; conditions: HEK293T; 48 h
Output rule met for 3' UTR reporter interaction score not less than 0.3; output rule not met otherwise.

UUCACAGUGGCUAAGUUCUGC    rule met
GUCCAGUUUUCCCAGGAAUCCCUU    rule not met
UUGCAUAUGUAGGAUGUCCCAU    rule not met

Below: the item to evaluate.
Is 3' UTR reporter interaction score for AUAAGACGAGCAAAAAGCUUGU at or above 0.3?
rule not met

* * *

tested on: MYCN; assay: 3' UTR reporter interaction score (median-centred robust z-score of log2 firefly/Renilla activity); higher = less repression of the 3' UTR reporter; details: HEK293T; 48 h
READOUT_LABEL: 3' UTR reporter interaction score
Numbers only.

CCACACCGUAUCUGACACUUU    0.101
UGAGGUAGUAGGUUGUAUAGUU    -4.02
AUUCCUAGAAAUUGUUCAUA    -0.577
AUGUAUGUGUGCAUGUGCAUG    0.324
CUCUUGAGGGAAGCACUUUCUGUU    0.894

Each sequence below has a recorded value; state its 3' UTR reporter interaction score.
1. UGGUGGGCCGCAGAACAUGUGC
2. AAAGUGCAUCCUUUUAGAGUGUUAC
3. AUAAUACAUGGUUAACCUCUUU
4. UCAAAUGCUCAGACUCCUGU
5. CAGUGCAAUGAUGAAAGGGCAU
6. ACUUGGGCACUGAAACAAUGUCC
7. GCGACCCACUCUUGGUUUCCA

[0.848, 1.43, 1.04, 1.14, 1.64, 0.382, 0.0444]

* * *

tested on: BRCA2; assay: 3' UTR reporter interaction score (median-centred robust z-score of log2 firefly/Renilla activity); higher = less repression of the 3' UTR reporter; settings: HEK293T; 48 h
Grouping key: 3' UTR reporter interaction score. Bins: range 1 (below -0.3), range 2 (-0.3 to below 0.5), range 3 (0.5 or more)

Below, 5 sequences whose answers are already recorded.
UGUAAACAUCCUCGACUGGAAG    range 2
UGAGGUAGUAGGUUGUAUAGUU    range 3
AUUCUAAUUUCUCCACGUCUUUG    range 2
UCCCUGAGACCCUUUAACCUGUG    range 3
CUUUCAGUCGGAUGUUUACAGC    range 2

# bin lookup: classify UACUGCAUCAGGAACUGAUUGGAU by its 3' UTR reporter interaction score
range 1
